# Assay Overview: Bidirectional transport assay across P-gp/BCRP double KO Caco-2 monolayers
# Settings: human, pH 7.4
Measured Metric: efflux ratio at 1 h, 5 μM
Answer as a number with no unit attached.

Can you share its efflux ratio at 1 h, 5 μM? I mean this molecule: C[C@H]1O[C@@H](O[C@H]2[C@@H](O)C[C@H](O[C@H]3[C@@H](O)C[C@H](O[C@H]4CC[C@@]5(C)[C@H](CC[C@@H]6[C@@H]5C[C@@H](O)[C@]5(C)[C@@H](C7=CC(=O)OC7)CC[C@]65O)C4)O[C@@H]3C)O[C@@H]2C)C[C@H](O)[C@@H]1O [Digoxin]
0.9

Can you share its efflux ratio at 1 h, 5 μM? I mean this molecule: Cc1c(O)cccc1C(=O)N[C@@H](CSc1ccccc1)[C@H](O)CN1C[C@H]2CCCC[C@H]2C[C@H]1C(=O)NC(C)(C)C [Nelfinavir]
0.43

Sourced from paper PMC9649518
